- Tested on: Lacticaseibacillus casei
- experimentSummary: Antimicrobial activity against Lactobacillus casei ATCC 7469 at 2 ug/ml
- Format: functional, organism-based
The source made the active and inactive calls. The calls are words filed in the database; no cut-off is given here.
propertyLabel: Activity

Study these solved cases before continuing.
COC(=O)CC[C@H](NC(=O)Nc1ccc(NCc2cnc3nc(NC(C)=O)[nH]c(=O)c3n2)cc1)C(=O)OC    inactive
Nc1nc2ncc(CNc3ccc(NC(=O)NC(CCC(=O)O)C(=O)O)cc3)nc2c(=O)[nH]1 (racemic)    inactive
COC(=O)CC[C@H](NC(=O)Nc1ccc(/N=C/c2cnc3nc(NC(C)=O)[nH]c(=O)c3n2)cc1)C(=O)OC    inactive
COC(=O)C[C@H](NC(=O)Nc1ccc(/N=C/c2cnc3nc(NC(C)=O)[nH]c(=O)c3n2)cc1)C(=O)OC    inactive

Field: next compound
Q: Form field - read-out: Activity; system: Lacticaseibacillus casei; submitted item: COC(=O)C[C@H](NC(=O)Nc1ccc(NCc2cnc3nc(NC(C)=O)[nH]c(=O)c3n2)cc1)C(=O)OC
Result: inactive

Recorded values, source ChEMBL document CHEMBL3227995.
